Cited source: PubChem BioAssay AID2510

- assayedSystem: Mucolipin-3 (Homo sapiens)
- assaySummary: human mucolipin-3 activators, concentration-response – cell-based, calcium fluorescence, dose response (AID 2510)
- condition: TRPML3-expressing cells, agonist mode
resultType: pEC50
Remember the convention: pEC50 equals -log10 of concentration in molar.

Which pEC50 value belongs to CCOc1ccc(S(=O)(=O)N2CCCCC2)c(C)c1C ?
5.75
